test system: 293T cells; assay: Fluorescence detection of Fluc-mRNA (transfection efficiency) of LNP preparations; format: cell-based; details: Fluc-mRNA LNP, vs MC3
The entries below are paired with their reported Cellular transfection efficiency, times that of MC3.
recordedMetric: Cellular transfection efficiency, times that of MC3 (times)

compound	assayedSystem	readoutUnits	observedMeasurement
CCCCCCCCc1ccc(CCC(CO)(CO)NCCCCCCNC(=O)C(CCCCCC)CCCCCCCC)cc1 (centres unmarked) [YK-908]	293T cells	times	53.42
CCCCCCCCCCC(CCCCCCCCCC)CCCOC(=O)CCCNC(CO)(CO)CCc1ccc(CCCCCCCC)cc1 [YK-902]	293T cells	times	3.28
CCCCCCCCCCC(CCCCCCCC)COC(=O)CCCCCNC(CO)(CO)CCc1ccc(CCCCCCCC)cc1 (centres unmarked) [YK-912]	293T cells	times	60.16
CCCCCCCCCCCOC(=O)CCCN(CCCCCCC(=O)OCCC(CCCCCC)CCCCCC)CCNC(CO)(CO)CCc1ccc(CCCCCCCC)cc1 [YK-910]	293T cells	times	90.92
CCCCCCCCCCOC(=O)CCCN(CCCCCC(=O)OCCC(CCCCCC)CCCCCC)CCNC(CO)(CO)CCc1ccc(CCCCCCCC)cc1 [YK-909]	293T cells	times	71.44

----------
Measured Particle size of individual entries
Assay: Particle size and polydispersity index (PDI) of lipid nanoparticles, dynamic light scattering
Format: physicochemical
Settings: LNP preparation with the named cationic lipid; 90° scattering angle, 25° C
Procedure: The cationic lipids listed in Table 2 were each mixed with DSPC (AVT (Shanghai) Pharmaceutical Technology Co., Ltd.), cholesterol (AVT (Shanghai) Pharmaceutical Technology Co., Ltd.), and DMG-PEG2000 in a molar ratio of 49:10:39.5:1.5 and dissolved in ethanol to prepare ethanol lipid solutions. […] The particle size and polydispersity index (PDI) were measured using dynamic light scattering with a Malvern laser diffraction particle size analyzer. […]
recordedMetric: Particle size (nm)

molecule	recordedMetric	observedMeasurement
CCCCCCCCCCCCCCNC(=O)CCCCCNC(CO)(CO)CCc1ccc(CCCCCCCC)cc1 [YK-907]	Particle size	159
CCCCCCCCCCOC(=O)CCCN(CCCCCC(=O)OCC(CCCCCCCC)CCCCCCCC)CCNC(CO)(CO)CCc1ccc(CCCCCCCC)cc1 [YK-906]	Particle size	124
CCCCCCCCc1ccc(CCC(CO)(CO)NCCCCCCC(=O)OCC(CCCCCCCC)CCCCCCCC)cc1 [YK-911]	Particle size	136
CCCCCCCCCCCOC(=O)CCCCCCNC(CO)(CO)CCc1ccc(CCCCCCCC)cc1 [YK-904]	Particle size	112
CCCCCCCCC(CCCCCC)COC(=O)CCCCCN(CCCCCC(=O)OCC(CCCCCC)CCCCCCCC)CCN(CCO)c1ccccc1 (stereo not shown) [Compound 7, reference compound]	Particle size	162
CCCCCCCCCCCOC(=O)CCCCCNC(CO)(CO)CCc1ccc(CCCCCCCC)cc1 [YK-905]	Particle size	135
CCCCCCCCCCC(CCCCCCCC)COC(=O)CCCCCNC(CO)(CO)CCc1ccc(CCCCCCCC)cc1 (stereo not shown) [YK-912]	Particle size	123

----------
experiment: Particle size and polydispersity index (PDI) of lipid nanoparticles, dynamic light scattering; assay type: physicochemical; conditions: LNP preparation with the named cationic lipid; 90° scattering angle, 25° C
Reported Particle size values are given for each entry in this list.

compound	readoutUnits	Particle size
CCCCCCCCCCOC(=O)CCCNC(CO)(CO)CCc1ccc(CCCCCCCC)cc1	nm	152
CCCCCCCCCCCCSSCCNC(=O)CCN1CCN(CCCCCC(=O)OCCC(CCCCCC)CCCCCC)CC1 [YK-506, reference compound]	nm	141
CCCCCCCCCCOC(=O)CCCN1CCN(CCCCCC(=O)OCC(CCCCCCC)CCCCCCCC)CC1 (stereo not shown) [YK-501, reference compound]	nm	144
CCCCCCCCCCCOC(=O)CCCCCN(CCO)CCCCCCCC(=O)OC(CCCCCCCC)CCCCCCCC [SM-102, reference compound]	nm	145
